- Test system: MCF7 breast
- testDetails: NCI-60 one-dose screen, 48 h
- setupConditions: 10 µM unless noted
Compounds without any hit were thinned out: in the full panel of roughly 83,000, 20% have a hit. The source made the active and inactive calls. How the source made its calls: active means growth percent below 10; inactive means the rest.
Return exactly one item of active, inactive

Take a look at these entries with their results.
* CN1CCN(C(=O)c2c3c(n4ccccc24)C(=O)c2ncccc2C3=O)CC1 | inactive
* Cc1c(C)c2c(c(C)c1OCC(=O)O)CC[C@@](C)(CCC[C@@H](C)CCC[C@@H](C)CCCC(C)C)O2 | inactive

Req: I'd appreciate the recorded outcome for COc1cc(C2CC(=O)Nc3c2c(C)nn3-c2nc3ccccc3[nH]2)c(OC)c2c1OCO2 (stereo unspecified) from this test.
Resp: inactive

Req: I'd appreciate the recorded outcome for "c1cc2ccc3cc2cc1CNCCOCCNCc1ccc2ccc(cc2c1)CNCCOCCNC3" from this test.
Resp: active

Req: I'd appreciate the recorded outcome for "Cc1nc2ccccc2c(/C=C/c2ccc(Cl)cc2)c1C(=O)/C=C/c1ccc(F)cc1" from this test.
Resp: inactive

Req: I'd appreciate the recorded outcome for "Cc1cc(NCc2cc(Nc3ccnc4cc(Cl)ccc34)ccc2F)nc(N2CCN(C)CC2)n1" from this test.
Resp: active

Req: I'd appreciate the recorded outcome for "O=C1/C(=C\c2c[nH]c3ccccc23)c2ccccc2N1c1c(Cl)cccc1Cl" from this test.
Resp: active

Req: I'd appreciate the recorded outcome for "Nc1cc2c3c(cccc3c1)C(=O)N(CCN1CCCC1)C2=O" from this test.
Resp: active

* * *

Below: a set of entries, each annotated with reported growth.
- System: UO-31 renal
- testDetails: NCI-60 one-dose screen, 48 h (100 = growth as untreated, 0 = no growth, -100 = all killed)
- setupConditions: 10 µM unless noted
This is part of a sample that, as a whole, favours compounds with a hit. Of some 83,000 tested, about 20% had one in any assay.
Numeric only. Scale: %

• CCN1C(=O)N(CC)C2Nn3c(s/c(=C\c4ccc(Cl)cc4Cl)c3=O)=NC21 (configuration not stated) = 53.5

Req: What does the record list as growth for "O=C(Nc1cccc(Cl)c1)c1cc(N=Nc2ccc([N+](=O)[O-])cc2Cl)ccc1O" ?
Resp: 38.7

Req: What does the record list as growth for "COc1ccc2c(c1)O/C(=C\c1cccc(OCC(=O)Nc3nc4ccccc4s3)c1)C2=O" ?
Resp: -61.3

* * *

Below: a set of entries, each annotated with reported growth.
- Tested on: SK-OV-3 ovarian
- testDetails: NCI-60 one-dose screen, 48 h (100 = growth as untreated, 0 = no growth, -100 = all killed)
- setupConditions: 10 µM unless noted
This is part of a sample that, as a whole, favours compounds with a hit. Of some 83,000 tested, about 20% had one in any assay.
Numeric only. Scale: %

Here's what some known entries look like.
• COc1ccc(C(=O)COc2ccc(/C=C3\Oc4ccccc4C3=O)cc2)cc1 = 103
• CCCCc1ccc(Nc2ccc(Nc3ccc(CCCC)cc3S(=O)(=O)O)c3c2C(=O)c2ccccc2C3=O)c(S(=O)(=O)O)c1 = 91.5
• COc1cccc(-c2nn(-c3ccccc3)cc2-c2ccnc(NCCCNC(=O)c3ccc(F)cc3)c2)c1 = 48.2
• CCOC(=O)c1ccc(N2NC(=O)/C(=C/c3ccc([N+](=O)[O-])o3)C2=O)cc1 = 117

Req: What does the record list as growth for "COc1ccc(NC(=O)c2nc(-c3cc(OC)c(OC)c(OC)c3)n(-c3cccc4ccccc34)n2)cc1OC" ?
Resp: 38.3

* * *

- System: HT29 colon
- testDetails: NCI-60 one-dose screen, 48 h (100 = growth as untreated, 0 = no growth, -100 = all killed)
- setupConditions: 10 µM unless noted
This is part of a sample that, as a whole, favours compounds with a hit. Of some 83,000 tested, about 20% had one in any assay.
endpointLabel: growth (%)
Numeric only. Scale: %

- Cc1cc(O)c(C2=NN(c3ccc(S(N)(=O)=O)cc3)C(c3ccccc3Cl)C2)cc1Cl (stereo not given): 0.516
- CN(C)c1ccc(-c2ccc3[nH]c(=O)nc(-c4ccccc4)c3c2)cn1: 14.1
- COc1cccc(-c2nn(-c3ccccc3)cc2-c2ccnc(NCCNC(=O)Nc3ccc(Cl)c(Cl)c3)c2)c1: -20.5
- COc1ccc2c(c1)C(=O)/C(=C/c1cccc(OCC(=O)Nc3nc(C)c(C)s3)c1)O2: -82.2
- Oc1c(CN2CCCC2)cc(COCc2ccc(Br)cc2)c2cccnc12: 55

Note: attention shifts to another entry.
Req: What does the record list as growth for O=C(CC(SCc1ccccc1)c1ccccc1)c1ccccc1 (stereo not given) ?
Resp: 86.8

* * *

Below: a set of entries, each annotated with reported growth.
- Tested on: SR leukemia
- testDetails: NCI-60 one-dose screen, 48 h (100 = growth as untreated, 0 = no growth, -100 = all killed)
- setupConditions: 10 µM unless noted
About 83,000 compounds went through this panel and 20% of them were active in at least one assay; those are over-represented in the sample as a whole.
Numeric only. Scale: %

• CCN(CC)c1nc(SCC(=O)Nc2nc3ccc(C)cc3s2)nc(-c2ccccc2)c1C#N = 2.23
• CCCCCc1nc2c(c3c1CCCC3)CCCC2 = 31.8
• COc1cccc(-c2nn(-c3ccccc3)cc2-c2ccnc(NCCCNC(=O)c3ccc(F)cc3)c2)c1 = -14.2

Req: What does the record list as growth for "CC(C)CCC[C@@H](C)[C@H]1CC[C@H]2[C@@H](Nc3ccc(O)cc3)CCC[C@]12C" ?
Resp: 71.8

Req: What does the record list as growth for "O=C1/C(=C/c2ccc(Br)cc2)C=C(c2ccccc2)N1CCc1ccccc1" ?
Resp: 58.6

Req: What does the record list as growth for COc1cc2c(cc1-c1c(C)noc1C)ncc1nc(C3CCC(F)(F)CC3)n(C3CCC(OC(F)F)CC3)c12 (centres undefined) ?
Resp: 33.5

Req: What does the record list as growth for "Cc1nc2c(c(N3CCCc4ccccc43)n1)CCC2" ?
Resp: 2.73

Req: What does the record list as growth for "O=[N+]([O-])c1ccc(-c2cc(-c3ccc(Nc4nc(Nc5ccc(Cl)cc5)nc(Nc5ccc(Cl)cc5)n4)cc3)no2)cc1" ?
Resp: 14.5

Req: What does the record list as growth for "COc1cc(-c2nn(-c3ccccc3)cc2-c2ccnc(NCCNS(=O)(=O)c3ccc(Cl)cc3)n2)ccc1Cl" ?
Resp: -19.4

* * *

- System: MALME-3M melanoma
- testDetails: NCI-60 one-dose screen, 48 h (100 = growth as untreated, 0 = no growth, -100 = all killed)
- setupConditions: 10 µM unless noted
Compounds without any hit were thinned out: in the full panel of roughly 83,000, 20% have a hit.
endpointLabel: growth (%)
Numeric only. Scale: %

Here's what some known entries look like.
- COCN1CCC2N(COC)CCC3N(COC)CCC1N23 (stereo unspecified): 134
- Cc1nn(-c2ccccc2)c(Cl)c1/C=C(/NC(=O)c1ccccc1)c1nc2ccccc2[nH]1: 48.9
- CCOC(=O)c1csc(NC(=O)COc2cccc(/C=C3\Oc4cc(OC)ccc4C3=O)c2)n1: 109
- CC1OC(O[C@H]2/C=C/C=C/C=C/C=C/C=C/C=C/C=C/[C@H](C)[C@@H](O)[C@@H](C)[C@H](C)OC(=O)CC(O)CC(O)CCC(O)C(O)CC(O)C[C@]3(O)C[C@H](O)C(C(=O)O)C(C2)O3)C(O)[C@H](N)C1O (stereo partly specified): -66
- Cc1ccc2nc(NC(=O)CSc3nc(Nc4ccc([N+](=O)[O-])cc4)c(C#N)c(-c4ccccc4)n3)sc2c1: 110

Note: attention shifts to another entry.
Req: What does the record list as growth for "NNC(=O)c1nc(N)n(-c2ccc(S(N)(=O)=O)cc2)n1" ?
Resp: 97.8

* * *

- Test system: LOX IMVI melanoma
- testDetails: NCI-60 one-dose screen, 48 h (100 = growth as untreated, 0 = no growth, -100 = all killed)
- setupConditions: 10 µM unless noted
The panel holds about 83,000 compounds, 20% with a hit somewhere; the sample as a whole holds those more often. Active and inactive are the calls of the source. The calls were made as follows: active = growth percent below 10; inactive = the rest.
endpointLabel: growth

Req: What does the record list as growth for "N/C(=N\c1nc2ccccc2s1)NC(=O)Nc1cccc(Cl)c1" ?
Resp: 38.9% (inactive)

Req: What does the record list as growth for "CCOC(=O)C/C(C)=N\NC(=O)c1ccncc1" ?
Resp: 105% (inactive)

Req: What does the record list as growth for "Cc1ccc(/C=C2\C(=O)N(C)c3ccc(S(=O)(=O)Nc4ccc(C(C)(C)C)cc4)cc32)s1" ?
Resp: 28.2% (inactive)

Req: What does the record list as growth for "NC(=N\N=C/c1ccccc1[N+](=O)[O-])/C(N)=N\N=C/c1ccccc1[N+](=O)[O-]" ?
Resp: 104% (inactive)
